Molecular target: Cytochrome P450 2C19 (Homo sapiens) (UniProt P33261)
Sequence (P33261 whole entry, looked up): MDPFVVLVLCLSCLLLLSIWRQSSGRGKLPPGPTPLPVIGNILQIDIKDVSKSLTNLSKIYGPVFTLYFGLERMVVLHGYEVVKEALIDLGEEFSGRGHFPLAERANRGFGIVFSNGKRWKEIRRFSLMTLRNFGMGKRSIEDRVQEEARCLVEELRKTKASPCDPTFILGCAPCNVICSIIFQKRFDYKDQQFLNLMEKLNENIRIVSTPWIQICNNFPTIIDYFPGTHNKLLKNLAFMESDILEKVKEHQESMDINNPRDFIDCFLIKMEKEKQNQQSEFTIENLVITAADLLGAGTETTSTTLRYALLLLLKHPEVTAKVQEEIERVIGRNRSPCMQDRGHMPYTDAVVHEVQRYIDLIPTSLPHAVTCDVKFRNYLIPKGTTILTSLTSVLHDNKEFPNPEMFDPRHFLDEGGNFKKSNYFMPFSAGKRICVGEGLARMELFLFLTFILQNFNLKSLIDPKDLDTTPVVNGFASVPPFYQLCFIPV
Experiment: Cytochrome P450 Family 2 Subfamily C Member 19 (CYP2C19) small molecule antagonists: luciferase reporter qHTS assay (AID 1671197); further: nearly all actives have a fitted effect of over 65% in size
Details: P450-Glo CYP2C19 enzyme, luciferin luminescence, 1 h; series mostly up to 115 µM
Records with an inconclusive call do not appear. Active and inactive are the calls of the source. The call rests on the fitted dose curve; in most records, active means well fitted inhibition curve with a large enough effect in the repeat runs; inconclusive means weak or mixed curves; inactive means no such curve, though single readings can be large or run the other way.
// classify into class 1 = active, class 0 = inactive

Examples with answers:
CCCCCCCCC(CO)CCCCCC (configuration not stated) : class 1
O=C(/C=C/c1ccc(O)c(O)c1)O[C@@H]1C[C@](O)(C(=O)O)C[C@@H](O)[C@H]1O : class 1
Oc1ccc(Sc2ccc(O)cc2)cc1 : class 1
CCCCCCCCCC(=O)OCC : class 1
CCCCCCCCCCCCCCCBr : class 0
CCCCCCOC(=O)CCC : class 0
CCCCCCc1ccc(N)cc1 : class 1
CCCCCOC(=O)c1ccc(O)cc1 : class 1

Can you look up the reported call for COc1ccc(C(C)=O)cc1 for me? class 0

Can you look up the reported call for O=[N+]([O-])c1cc[n+]([O-])cc1 for me? class 1

Can you look up the reported call for NC1CCN(c2nc3c(cc2F)c(=O)c(C(=O)O)cn3-c2ccc(F)cc2F)C1 (configuration not stated) for me? class 0

Can you look up the reported call for N[C@H]1C(O)O[C@H](CO)[C@H](O)[C@@H]1O (some centres not stated) for me? class 0
